The reported numbers originate from patent US9676796B2.

Tested on: M. morganii
Assay: Antibacterial activity in vitro, agar plate dilution MIC
Assay type: cell-based
Settings: Morganella morganii; clinical isolate, Mueller-Hinton agar dilution
result_type: MIC (µg/mL)
Numbers only, in µg/mL.

[[record]]
compound = "Cl.NCC1OB2OCC(CO)Oc3cccc1c32 (centres unmarked) [compound D, reference compound]"
experimental_target = "M. morganii"
value_reported = 8


Below are 4 compounds. Give each one its MIC.
1. C[C@@H](O)[C@H]1C(=O)N2C(C(=O)O)=C(S[C@@H]3CN[C@H](C(=O)N(C)C)C3)[C@H](C)[C@H]12 [MEPM, meropenem, reference compound]
2. Cl.NC[C@H]1OB2O[C@H](CO)COc3cccc1c32 [Compound C, reference compound]
3. Cl.NCC1OB2OCCOc3cccc1c32 (centres unmarked) [Compound A, reference compound]
4. C[C@H]1COB2O[C@H](CN)c3cccc(c32)O1.Cl

1: 0.125; 2: 2; 3: 2; 4: 0.5

---

Provide the recorded MIC for the entries that follow.
Test system: K. oxytoca
Experiment: Antibacterial activity in vitro, agar plate dilution MIC
Type: cell-based
Settings: Klebsiella oxytoca; clinical isolate, Mueller-Hinton agar dilution

Some entries whose results are on file:
[[record]]
compound = "C[C@@H](O)[C@H]1C(=O)N2C(C(=O)O)=C(S[C@@H]3CN[C@H](C(=O)N(C)C)C3)[C@H](C)[C@H]12 [MEPM, meropenem, reference compound]"
experimental_target = "K. oxytoca"
result_type = "MIC"
value_reported = "< 0.0313 µg/mL"

[[record]]
compound = "Cl.NCC1OB2OCCOc3cccc1c32 (stereo not shown) [Compound A, reference compound]"
experimental_target = "K. oxytoca"
result_type = "MIC"
value_reported = "2 µg/mL"

[[record]]
compound = "CC1COB2O[C@H](CN)c3cccc(c32)O1.Cl (stereo partly shown)"
experimental_target = "K. oxytoca"
result_type = "MIC"
value_reported = "2 µg/mL"


Consider the additional compound presented here.
Name the reported MIC value associated with the compound Cl.NC[C@H]1OB2O[C@H](CO)COc3cccc1c32 [Compound C, reference compound] 2 µg/mL
